molecular target: Recombinant Human DLL4 (human, UniProt Q9NR61 27-524); assay: SPR (BIACORE)
Sequence (Q9NR61 27-524 limits assumed): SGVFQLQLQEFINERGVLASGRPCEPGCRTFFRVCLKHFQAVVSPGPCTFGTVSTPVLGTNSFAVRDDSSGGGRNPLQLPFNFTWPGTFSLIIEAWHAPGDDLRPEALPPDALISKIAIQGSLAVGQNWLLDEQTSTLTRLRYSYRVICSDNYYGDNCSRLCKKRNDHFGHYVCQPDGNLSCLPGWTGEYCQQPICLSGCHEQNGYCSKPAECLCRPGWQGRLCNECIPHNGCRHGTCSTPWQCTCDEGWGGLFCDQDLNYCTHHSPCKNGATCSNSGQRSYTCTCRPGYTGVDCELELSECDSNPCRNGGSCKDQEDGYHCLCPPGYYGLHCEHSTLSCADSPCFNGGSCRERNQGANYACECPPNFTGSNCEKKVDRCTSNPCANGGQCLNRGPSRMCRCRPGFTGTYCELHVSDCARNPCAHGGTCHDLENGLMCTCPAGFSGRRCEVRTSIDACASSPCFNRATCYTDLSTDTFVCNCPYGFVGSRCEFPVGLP
Reported koff values are given for each entry in this list.
Answer format: numeric, s⁻¹ implied, no suffix.

AB334 (antibody, human IgG1, kappa, V domains shown, CDR-grafted parent antibody) VH: QVQLQQSGAELMKPGASVKLSCKATGFTFSNFPMAWVKQRPGHGLEWVATISSSDGTTYYRDSVKGKFTITRDNSSNTLYIQLISLTTEDSAIYYCARGYYNSPFAYWGQGTLLTVSA VL: DILMTQSPAILSVSPGERVSFSCRASEDIYSNLAWYQQRTNGAPRLLIYDTNNLADGVPSRFSGGGSGTDFTLSINSVESEDIADYYCQQYNNYPPTFGAGTKLELKR | 0.0055

IN: Fill in the blank: the reported koff of AB287 (antibody, human IgG1, kappa, V domains shown, CDR-grafted parent antibody) VH: EVTLRESGPALVKPTQTLTLTCTVSGGSISSSSYYWGWIRQPPGKGLEWIGDIYYTGSTYYNPSLKSRVTISVDTSKNQFVLTMTNMDPVDTATYYCARQALAMGGGSDKWGQGTTVTVSS VL: DYVLTQSPDSLAVSLGERATINCSGQRLGDKYASWYQQKPGQSPKLVIYEDSKRPSGIPDRFSGSNSGDDATLTISSLQAEDVAVYYCQAWDRDTGVFGGGTKVEIKR is ____.
OUT: 0.00012

Recorded values, source patent US20120258108A1.
